Listing of entries alongside the reported TGI.
test system: SF-295 CNS; experiment: NCI tumour cell line growth inhibition, 48 h
metric-name: TGI

[
  {
    "compound": "C=CC(=O)N1CCN(c2nc(OC[C@@H]3CCCN3C)nc3c2CCN(c2cccc4cccc(C)c24)C3)C[C@@H]1CC#N",
    "assayed-system": "SF-295 CNS",
    "reported-measurement": "2.9 µM"
  },
  {
    "compound": "COC(=O)[C@@H](O)[C@]1(C(=O)OC)C2O[C@@H](OC)[C@@H]1CCCCCC[C@H]2O",
    "assayed-system": "SF-295 CNS",
    "reported-measurement": "> 100 µM"
  },
  {
    "compound": "COc1ccccc1N1C(Cl)C(=O)C1c1c[nH]c2ccccc12 (centres undefined)",
    "assayed-system": "SF-295 CNS",
    "reported-measurement": "> 100 µM"
  },
  {
    "compound": "COc1ccc(-c2cnnn2-c2cc(OC)c3c(c2)OCO3)cc1",
    "assayed-system": "SF-295 CNS",
    "reported-measurement": "> 100 µM"
  },
  {
    "compound": "CCC(CC)n1cc(C(=O)NC(=O)NCCCCCOC(=O)CCCCCCCCCCC(=O)OCCCCCNC(=O)NC(=O)c2cn(C(CC)CC)c(=O)[nH]c2=O)c(=O)[nH]c1=O",
    "assayed-system": "SF-295 CNS",
    "reported-measurement": "> 100 µM"
  },
  {
    "compound": "C=C(C)[C@@H]1CC[C@]2(C(=O)NCCNCCNCCN)CC[C@]3(C)[C@H](CC[C@@H]4[C@@]5(C)CC[C@H](O)C(C)(C)[C@@H]5CC[C@]43C)[C@@H]12",
    "assayed-system": "SF-295 CNS",
    "reported-measurement": "30.3 µM"
  },
  {
    "compound": "COc1ccc(N(C)Sc2ccccc2)cc1",
    "assayed-system": "SF-295 CNS",
    "reported-measurement": "> 100 µM"
  },
  {
    "compound": "O=C(O)C(O)Cc1ccccn1 (centres undefined)",
    "assayed-system": "SF-295 CNS",
    "reported-measurement": "> 100 µM"
  },
  {
    "compound": "CCCCCCCCC(=O)N(C)C1C2CN3CCC(O2)C13 (centres undefined)",
    "assayed-system": "SF-295 CNS",
    "reported-measurement": "> 100 µM"
  }
]

* * *

test system: LOX IMVI melanoma; test: NCI tumour cell line growth inhibition, 48 h
metric-name: log10 TGI (log10 of the value in µM)

[
  {
    "compound": "O=C1CC(c2ccc3c(c2)OCO3)Nc2cc3c(cc21)OCO3 (stereo not given)",
    "log10 TGI": 1.18
  },
  {
    "compound": "C=C1CC2(C[C@@H](c3ccccc3)O[C@@H](c3ccccc3)C2)OC1=O (stereo not given in full)",
    "log10 TGI": 0.45
  },
  {
    "compound": "O=c1c2cccc3cccc(c4oc5c6cccc7cccc(c(=O)c5c14)c76)c32",
    "log10 TGI": 1.24
  },
  {
    "compound": "NC1=C(Br)C(=O)c2ncccc2C1=O",
    "log10 TGI": -0.18
  },
  {
    "compound": "CC1=C(C(=O)Nc2cccc(Cl)c2)C(c2ccc([N+](=O)[O-])cc2)C(C(=O)Nc2cccc(Cl)c2)=C(C)N1",
    "log10 TGI": 1.46
  },
  {
    "compound": "Cn1ccnc1C(=O)/C=C/c1ccc(CC(=O)Nc2ccc(S(F)(F)(F)(F)F)cc2)cc1",
    "log10 TGI": 0.52
  }
]

* * *

test system: HOP-62 NSCLC; test: NCI tumour cell line growth inhibition, 48 h
metric-name: TGI

[
  {
    "compound": "c1ccc(-c2ccc(-c3cc4ccccc4[nH]3)cc2)cc1",
    "assayed-system": "HOP-62 NSCLC",
    "metric-name": "TGI",
    "reported-measurement": "> 100 µM"
  },
  {
    "compound": "Cc1cc(OCc2nn(CN3CCN(C)CC3)c(=S)n2/N=C/c2ccc(-c3ccc(Cl)cc3Cl)o2)ccc1Cl",
    "assayed-system": "HOP-62 NSCLC",
    "metric-name": "TGI",
    "reported-measurement": "> 100 µM"
  },
  {
    "compound": "CC(=O)NCCSC(=O)c1ccccc1",
    "assayed-system": "HOP-62 NSCLC",
    "metric-name": "TGI",
    "reported-measurement": "0.525 µM"
  },
  {
    "compound": "COc1ccc(C(=O)/C=C/c2ccc(OCCSCCCCCCCCCCSCCOc3ccc(/C=C/C(=O)c4ccc(OC)cc4)cc3)cc2)cc1",
    "assayed-system": "HOP-62 NSCLC",
    "metric-name": "TGI",
    "reported-measurement": "> 100 µM"
  },
  {
    "compound": "O=C1CC(c2ccc3c(c2)OCO3)Nc2cc3c(cc21)OCO3 (stereo not given)",
    "assayed-system": "HOP-62 NSCLC",
    "metric-name": "TGI",
    "reported-measurement": "> 100 µM"
  }
]

* * *

system: SK-MEL-2 melanoma; assay: NCI tumour cell line growth inhibition, 48 h

[
  {
    "molecule": "Cc1nc(Nc2ccc(F)cc2)c2sc(=S)n(-c3ccc(F)cc3)c2n1",
    "limit-qualifier": "=",
    "TGI (µM)": 28.6
  },
  {
    "molecule": "C#CCOCn1ccc(=O)[nH]c1=O",
    "limit-qualifier": ">",
    "TGI (µM)": 100
  },
  {
    "molecule": "c1cc(CCN2CCCCC2)ccn1",
    "limit-qualifier": ">",
    "TGI (µM)": 100
  },
  {
    "molecule": "C[C@]12CC[C@@H]3c4ccc(O)cc4CC[C@H]3[C@@H]1CC[C@@H]2NS(=O)(=O)c1cccc(C(F)(F)F)c1",
    "limit-qualifier": "=",
    "TGI (µM)": 13
  },
  {
    "molecule": "COc1ccn2c(C(C)=O)cc(C(=O)c3ccc4c(c3)Sc3ccccc3N4)c2c1",
    "limit-qualifier": ">",
    "TGI (µM)": 100
  },
  {
    "molecule": "CC1=CCC(OC(=O)C(C)(C)CCC(O)(C(=O)OC2(C(C)C)CCC3(C)OC3C2)C(C)C)(C(C)C)CC1 (stereo not given)",
    "limit-qualifier": "=",
    "TGI (µM)": 1.78
  },
  {
    "molecule": "O=C(O)CCC(NC(=O)c1ccc(Nc2cnc3ccc(C(F)(F)F)cc3n2)cc1)C(=O)O (stereo not given)",
    "limit-qualifier": ">",
    "TGI (µM)": 100
  },
  {
    "molecule": "O=C(/C=C/c1cccs1)c1ccc(Nc2nc(Nc3ccc(F)cc3)nc(Nc3ccc(F)cc3)n2)cc1",
    "limit-qualifier": ">",
    "TGI (µM)": 100
  },
  {
    "molecule": "O=C1/C(=C/c2ccc3c(c2)OCO3)CCC1CN1CCOCC1 (stereo not given)",
    "limit-qualifier": "=",
    "TGI (µM)": 28.6
  },
  {
    "molecule": "O=C1CC(c2ccc3c(c2)OCO3)Nc2cc3c(cc21)OCO3 (stereo not given)",
    "limit-qualifier": ">",
    "TGI (µM)": 100
  }
]

* * *

tested on: SF-539 CNS; assay: NCI tumour cell line growth inhibition, 48 h
metric-name: GI50

[
  {
    "input-smiles": "[C-]#[O+].[C-]#[O+].[C-]#[O+].[C-]#[O+].[Ir].[Ir].[O-]c1ccc2ccccc2c1C=Nc1ccc(N=Cc2c([O-])ccc3ccccc23)cc1",
    "reported-measurement": "> 100 µM"
  },
  {
    "input-smiles": "CC(C)[C@@]12C[C@@H](OC(=O)COC(=O)/C=C/c3ccccc3)[C@@](C)(O1)[C@@H]1CC[C@@H](C)[C@H]1[C@@H]2OC(=O)/C=C/c1ccccc1",
    "reported-measurement": "> 100 µM"
  },
  {
    "input-smiles": "CC(C)C[C@H](NC(=O)[C@H]1O[C@@H]1C(=O)O)C(=O)NCCc1ccc(O)cc1",
    "reported-measurement": "> 100 µM"
  },
  {
    "input-smiles": "O=C(CCCCCCSc1nc(-c2ccccc2)cc(-c2ccccc2)n1)NO",
    "reported-measurement": "2.43 µM"
  }
]
